testTarget: Tyrosine-protein kinase receptor UFO (Homo sapiens)
runConditions: at 1 µM
Description: GSK_PKIS: AXL mean inhibition at 1 uM [Nanosyn]
Catalogue of molecules with associated inhibition
measure: inhibition

[[record]]
linenotation = "COc1ccc2ncn(-c3cc(O[C@H](C)c4ccccc4Cl)c(C(N)=O)s3)c2c1"
measure = "inhibition"
result = "-8.67%"

[[record]]
linenotation = "Fc1ccc(-c2ncn(C3CCNCC3)c2-c2ccnc(Oc3ccc(F)c(F)c3)n2)cc1"
measure = "inhibition"
result = "-4.58%"

[[record]]
linenotation = "O=C1Nc2ccc(I)cc2C1=Cc1cc(Br)c(O)c(Br)c1"
measure = "inhibition"
result = "-7.49%"


###

testTarget: Serine/threonine-protein kinase Sgk2 (Homo sapiens)
runConditions: at 1 µM
Description: GSK_PKIS: SGK2 mean inhibition at 1 uM [Nanosyn]
Catalogue of molecules with associated inhibition
measure: inhibition (%)

[[record]]
molecule = "CN(C)CCCNc1nccc(-c2c(-c3ccc(F)cc3)nn3cc(C(F)(F)F)ccc23)n1"
result = 1.75

[[record]]
molecule = "COc1ccc2cc(-c3c(-c4ccncc4)nc(-c4ccc(S(C)(=O)=O)cc4C)n3C)ccc2c1"
result = 4.24

[[record]]
molecule = "Fc1ccc(-c2ncn(C3CCNCC3)c2-c2ccnc(Oc3ccc(F)c(F)c3)n2)cc1"
result = 3.96

[[record]]
molecule = "CCS(=O)(=O)c1ccc(OC)c(Nc2ncc(-c3ccccc3Cl)o2)c1"
result = -2.15

[[record]]
molecule = "C[C@@H](Oc1cc(-n2cnc3ccc(OC4CCN(C)CC4)cc32)sc1C(N)=O)c1ccccc1Cl"
result = 1.45

[[record]]
molecule = "O=C(Nc1n[nH]c2nc(-c3ccc(O)cc3)c(Br)cc12)C1CC1"
result = 24.8

[[record]]
molecule = "COc1ccc2cc(-c3c(-c4ccncc4)nc(-c4ccc([S+](C)[O-])cc4C)n3C)ccc2c1 (stereo not given)"
result = 0.22

[[record]]
molecule = "CNC(=O)c1cncc(/C=C/c2c(C)cccc2C)c1"
result = -3.14

[[record]]
molecule = "COc1ccc(C2=C(N3CCc4ccccc43)C(=O)NC2=O)cc1"
result = -5.83

[[record]]
molecule = "C/C(Nc1ccc(S(N)(=O)=O)cc1)=C1/C(=O)Nc2ccccc21"
result = 2.83

[[record]]
molecule = "COc1cc2ncn(-c3cc(OCCc4ccccc4)c(C(N)=O)s3)c2cc1OC"
result = -1.95

[[record]]
molecule = "COc1cccc(/C=N/Nc2ncnc3c2cnn3-c2cccc(OC)c2)c1"
result = 2.15

[[record]]
molecule = "Cc1ccc(NC(=O)c2ccoc2)cc1-c1ccc(C(=O)NCC2CC2)cc1"
result = -0.89

[[record]]
molecule = "CS(=O)(=O)CCNCc1cc(-c2cc3c(Nc4ccc(OCc5cccc(F)c5)c(Cl)c4)ncnc3s2)cs1"
result = 2.6

[[record]]
molecule = "C#Cc1cccc(Nc2ncnc3ccc(OCCCCNCCS(C)(=O)=O)cc23)c1"
result = 4.33

[[record]]
molecule = "COc1cc2ncn(-c3cc(OCc4ccccc4C(F)(F)F)c(C(C)=O)s3)c2cc1OC"
result = 3.04

[[record]]
molecule = "FC(F)(F)c1cccc(Nc2nccc(-c3cnn4nc(-c5ccccc5)ccc34)n2)c1"
result = 1.95

[[record]]
molecule = "O=C(Nc1ccc(Oc2ccc3[nH]c(NC(=O)c4ccccc4)nc3c2)cc1)Nc1cc(C(F)(F)F)ccc1F"
result = 4.13

[[record]]
molecule = "Clc1ccc(CNc2nccc(-c3cnn4ncccc34)n2)cc1"
result = 1.91

[[record]]
molecule = "Cc1ccc(C(=O)NC2CCC2)cc1-c1ccc(C(=O)NCC2CC2)cc1"
result = -2.52

